Reported inhibition by item:
PROCEDURE TEXT: inhibitors of PAF-induced NFkB signaling in CF airway cells, dose response, cell-based, uHTS hits, panel, cytotoxicity readout (AID 624344)
EXPERIMENTAL CONTEXT: CF bronchial epithelial cells, PAF-induced NFkB reporter inhibition, with PAF, run 1; at 79 µM (top of the series) unless noted
The answer is to be given in %; state only the numeric part.

Example compounds with recorded inhibition:
COMPOUND	inhibition / %
CC(=O)c1c(O)cc2c3c1OC(C)(C)C1CCC(C)(CC31)O2 (stereo not given)	111
O=[N+]([O-])c1cccc(/C=N/Nc2cc(N3CCOCC3)ncn2)c1	116
O=C1N(c2ccccc2C(F)(F)F)O[C@@]1(c1ccccc1)C1CCCCC1	99.3
FC(F)(F)c1nnc2c(Sc3ccc(Cl)cc3)nc3ccccc3n12	98
COCCN1Cc2cccc(C(=O)Nc3cccc(-c4nc5ccccc5[nH]4)c3)c2C1=O	95.8
C=C1C(=O)[C@]23C[C@H]1CCC2[C@@]1(C)C(C[C@@H]3O)[C@](C)(C(=O)O)CC[C@@H]1O (stereo not given in full)	97.1
O=C1Nc2ccccc2/C1=C/c1ccnc2ccccc12	106
Cc1cccc(NC(=O)c2nc(S(=O)(=O)Cc3ccccc3)ncc2Cl)c1	86.6
O=C1NCCc2c1[nH]c1c(Cl)ccc(Cl)c21	101

Switching to the query record.
Please look up its inhibition: COc1cccc(-c2ccc3ncnc(NCc4cc(C)cs4)c3c2)c1
106
